protocol notes: Cytotoxicity against human HeLa P4/R5 cells up to 25 uM
Format: cell-based

smiles text	CC50
O=C(O)c1cn(Cc2cccc3ccccc23)cc(O)c1=O	> 25 µM

---

Overview of reported pIC50 across a group of compounds:
protocol notes: Inhibition of HIV-1 RT-RNase H activity expressed in Escherichia coli JM109 using DNA 3'-end directed cleavage measuring HTS-2 as substrate by fluorescence-based assay
Design: species or system Human immunodeficiency virus 1
pIC50: −log10 of the molar value.

compound	pIC50
O=C(O)c1cn(Cc2ccccc2)cc(O)c1=O	< 4.60
O=C(O)c1cn(Cc2ccc(Cl)c(Cl)c2)cc(O)c1=O	< 4.60
CC(c1cccc2ccccc12)n1cc(O)c(=O)c(C(=O)O)c1 (stereo unspecified)	< 4.60
O=C(O)c1cn(Cc2ccc(-c3ccccc3)cc2)cc(O)c1=O	5.55
CCOC(=O)c1cn(Cc2ccc(F)cc2)cc(O)c1=O	< 4.60
O=C(O)c1ccc(Cn2cc(O)c(=O)c(C(=O)O)c2)cc1	< 4.60

---

protocol notes: Inhibition of HIV-1 RT-RNase H activity expressed in Escherichia coli JM109 using DNA 3'-end directed cleavage measuring HTS-2 as substrate by fluorescence-based assay
Set-up: species or system Human immunodeficiency virus 1

compound	IC50
O=C(O)c1cn(Cc2ccncc2)cc(O)c1=O	> 25 µM
O=C(O)c1cn(Cc2cccc(C(F)(F)F)c2)cc(O)c1=O	> 25 µM
NCc1ccc(-c2ccc(Cn3cc(O)c(=O)c(C(=O)O)c3)cc2)cc1	4.4 µM
Cc1cc(Cn2cc(O)c(=O)c(C(=O)O)c2)ccc1F	> 25 µM
O=C(O)c1cn(Cc2ccc(F)cc2F)cc(O)c1=O	> 25 µM
CC(c1ccc(F)cc1)n1cc(O)c(=O)c(C(=O)O)c1 (configuration not stated)	> 25 µM
O=C(O)c1cn(-c2ccccc2)cc(O)c1=O	> 25 µM
NC(=O)c1cn(Cc2ccc(F)cc2)cc(O)c1=O	> 25 µM
O=C(O)c1cn(CC2(c3ccccc3)CCCC2)cc(O)c1=O	5.1 µM
O=C(O)c1cn(Cc2ccc(F)c(Cl)c2)cc(O)c1=O	> 25 µM
O=C(O)c1cn(Cc2ccc(Cl)cc2Cl)cc(O)c1=O	> 25 µM
O=C(O)c1cn(Cc2ccccc2-c2ccccc2)cc(O)c1=O	25 µM

---

Overview of reported IC50 across a group of compounds:
experimental target: Human immunodeficiency virus type 1 integrase (Human immunodeficiency virus 1, UniProt Q7ZJM1, C280S/F185K)
Sequence (Q7ZJM1 entry or part of it C280S/F185K): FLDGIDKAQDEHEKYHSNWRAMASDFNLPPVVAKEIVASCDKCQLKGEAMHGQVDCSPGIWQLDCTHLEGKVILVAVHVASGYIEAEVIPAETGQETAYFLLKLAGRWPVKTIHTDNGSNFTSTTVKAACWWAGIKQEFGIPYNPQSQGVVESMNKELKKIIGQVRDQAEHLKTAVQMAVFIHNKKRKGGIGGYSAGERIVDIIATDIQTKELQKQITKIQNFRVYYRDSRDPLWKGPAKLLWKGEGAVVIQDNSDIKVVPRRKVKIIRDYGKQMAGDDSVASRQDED
protocol notes: Inhibition of full-length HIV-1 integrase F185K/C280S double mutant strand transfer activity expressed in Escherichia coli BL21(DE3) using oligo DNA as substrate preincubated for 10 mins followed by substrate addition incubated for 30 mins by plate reader analysis

compound	IC50
O=C(O)c1c[nH]cc(O)c1=O	> 100 µM
O=C(O)c1ccc(Cn2cc(O)c(=O)c(C(=O)O)c2)cc1	> 100 µM
CS(=O)(=O)c1ccc(Cn2cc(O)c(=O)c(C(=O)O)c2)cc1	> 100 µM
Cc1cc(Cn2cc(O)c(=O)c(C(=O)O)c2)ccc1F	> 100 µM
CCOC(=O)c1cn(Cc2ccc(F)cc2)cc(O)c1=O	> 100 µM
O=C(O)c1cn(Cc2ccc(Br)cc2)cc(O)c1=O	> 100 µM
O=C(O)c1cn(Cc2ccccc2-c2ccccc2)cc(O)c1=O	17 µM
O=C(O)c1cn(Cc2ccccc2)cc(O)c1=O	35 µM
O=C(O)c1cn(Cc2ccc(Cl)c(Cl)c2)cc(O)c1=O	36 µM
CC(c1cccc2ccccc12)n1cc(O)c(=O)c(C(=O)O)c1 (stereo not given)	2.26 µM
O=C(O)c1cn(Cc2ccc(F)c(Cl)c2)cc(O)c1=O	44.5 µM
O=C(O)c1cn(Cc2ccncc2)cc(O)c1=O	> 100 µM
O=C(O)c1cn(CC2(c3ccccc3)CCCC2)cc(O)c1=O	14 µM
CC(c1ccc(F)cc1)n1cc(O)c(=O)c(C(=O)O)c1 (stereo not given)	34 µM
NCc1ccc(-c2ccc(Cn3cc(O)c(=O)c(C(=O)O)c3)cc2)cc1	7.79 µM
NS(=O)(=O)c1ccc(-c2ccc(Cn3cc(O)c(=O)c(C(=O)O)c3)cc2)cc1	> 100 µM
O=C(O)c1cn(Cc2ccc(Cl)cc2Cl)cc(O)c1=O	25 µM
NC(=O)c1cn(Cc2ccc(F)cc2)cc(O)c1=O	32 µM
O=C(O)c1cn(-c2ccccc2)cc(O)c1=O	37 µM
O=C(O)c1cn(Cc2ccc(F)cc2F)cc(O)c1=O	> 100 µM

---

Overview of reported IC50 across a group of compounds:
experimental target: Human immunodeficiency virus type 1 reverse transcriptase (Human immunodeficiency virus 1, UniProt Q72547)

smiles text	IC50
NCc1ccc(-c2ccc(Cn3cc(O)c(=O)c(C(=O)O)c3)cc2)cc1	3.2 µM
O=C(O)c1cn(Cc2ccc(Cl)c(Cl)c2)cc(O)c1=O	> 25 µM
O=C(O)c1cn(Cc2ccccc2)cc(O)c1=O	> 25 µM
O=C(O)c1cn(Cc2ccc(-c3cccnc3)cc2)cc(O)c1=O	> 25 µM
O=C(O)c1cn(Cc2ccc(F)c(Cl)c2)cc(O)c1=O	> 25 µM
O=C(O)c1cn(Cc2ccc(-c3ccccc3)cc2)cc(O)c1=O	2.2 µM
O=C(O)c1cn(Cc2ccncc2)cc(O)c1=O	> 25 µM
NC(=O)c1cn(Cc2ccc(F)cc2)cc(O)c1=O	> 25 µM
